Source of measurements: ChEMBL document CHEMBL4622986

assay: Cytotoxicity against human HuH7 cells infected with HCV con1 subgenomic replicon assessed as reduction in cell viability measured after 3 days by CellTiter-blue cell viability assay; format: cell-based, Huh-7
Test Readout: CC50 at 72 h

INSERT INTO assay_data (compound, recorded_result) VALUES
  ('C#C[C@]1(F)[C@H](n2cnc3c(OCC)nc(N)nc32)O[C@](F)(COP(=O)(N[C@@H](C)C(=O)OC2CCCCC2)Oc2ccccc2)[C@H]1O (stereo not given in full)', '3.26 µM'),
  ('CCOc1nc(N)nc2c1ncn2[C@@H]1O[C@](F)(COP(=O)(N[C@@H](C)C(=O)OC2CCCCC2)Oc2ccccc2)[C@@H](O)[C@@]1(C)O (stereo not given in full)', '> 100 µM'),
  ('CCOc1nc(N)nc2c1ncn2[C@@H]1O[C@](F)(COP(=O)(N[C@@H](C)C(=O)OC2CCCCC2)Oc2ccccc2)[C@@H](O)[C@@]1(C)F (stereo not given in full)', '> 100 µM'),
  ('CCOc1nc(N)nc2c1ncn2[C@@H]1O[C@](F)(COP(=O)(N[C@@H](C)C(=O)OCC(C)C)Oc2ccccc2)[C@@H](O)[C@@]1(C)F (stereo not given in full)', '> 100 µM'),
  ('CCOc1nc(N)nc2c1ncn2[C@@H]1O[C@]2(F)COP(=O)(OCC(C)C)O[C@H]2[C@@]1(C)F (stereo not given in full)', '> 100 µM'),
  ('CCOc1nc(N)nc2c1ncn2[C@@H]1O[C@](F)(CO[P@@](=O)(N[C@@H](C)C(=O)OC(C)C)Oc2ccccc2)[C@@H](O)[C@@]1(C)F', '> 100 µM');

CCOc1nc(N)nc2c1ncn2[C@@H]1O[C@H](COP(=O)(N[C@@H](C)C(=O)OCC(C)(C)C)Oc2cccc3ccccc23)[C@@H](O)[C@@]1(C)O (stereo not given in full) has a reported CC50 at 72 h of 16.4 µM

CCOc1nc(N)nc2c1ncn2[C@@H]1O[C@]2(F)COP(=O)(OCC)O[C@H]2[C@@]1(C)F (stereo not given in full) has a reported CC50 at 72 h of > 100 µM

CCOc1nc(N)nc2c1ncn2[C@@H]1O[C@](F)(COP(=O)(N[C@@H](C)C(=O)OC2CCCC2)Oc2ccccc2)[C@@H](O)[C@@]1(C)F (stereo not given in full) has a reported CC50 at 72 h of 92.9 µM

CCOc1nc(N)nc2c1ncn2[C@@H]1O[C@]2(F)COP(=O)(OC(C)C)O[C@H]2[C@@]1(C)F (stereo not given in full) has a reported CC50 at 72 h of > 100 µM
